Reported IC50 is given for each of the following molecules.
# testedSystem: IL-17A/A (Homo sapiens, UniProt Q16552)
# Sequence (Q16552 24-155): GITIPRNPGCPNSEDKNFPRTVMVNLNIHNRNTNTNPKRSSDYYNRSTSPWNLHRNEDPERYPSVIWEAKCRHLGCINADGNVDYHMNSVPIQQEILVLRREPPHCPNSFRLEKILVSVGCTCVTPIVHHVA
# assayNotes: IL-17A/A HEK-Blue Cell Assay
# Type: cell-based
# cond: HEK-Blue IL-17 reporter cells, IL-17A/A stimulation, 20 hours, SEAP readout; read-out: IL17 AA HEK-5 pIC50 (converted)
propertyMeasured: IC50

- molecule: "CCC(=O)N[C@@H](C(=O)N1CCN(C)[C@H](C)C1)[C@@H](C)c1ccc(NC(=O)[C@@H](NC(=O)C2(F)CC2)C(C2CC2)C2CC2)c(F)c1"
  result: "10 to 100 nM"
- molecule: "CCn1nccc1C(=O)N[C@H](C(=O)Nc1ccc([C@H](C)[C@@H](NC(=O)[C@H](C)Nc2ncccn2)C(=O)N2CCN(C)[C@H](C)C2)cc1F)C(C1CC1)C1CC1"
  result: "< 10 nM"
- molecule: "CCC(=O)N[C@@H](C(=O)N1CCN(C)CC1)[C@@H](C)c1ccc(NC(=O)[C@@H](NC(=O)c2ccnn2CC(F)F)C(C2CC2)C2CC2)c(F)c1"
  result: "10 to 100 nM"
- molecule: "CCC(=O)N[C@@H](C(=O)N1CC2(CN(C)C2)C1)[C@@H](C)c1ccc(NC(=O)[C@@H](NC(=O)c2ccnn2CC)C(C2CC2)C2CC2)c(F)c1"
  result: "100 to 10000 nM"
- molecule: "CCn1nccc1C(=O)N[C@H](C(=O)Nc1ccc(C(C(NC(=O)[C@H](C)OC)C(=O)N2CCN(C)[C@H](C)C2)C(F)(F)F)cc1F)C(C1CC1)C1CC1 (single isomer, unassigned) [Compound 351]"
  result: "100 to 10000 nM"
- molecule: "CCC(OC)C(=O)N[C@@H](C(=O)N1CCN(C)[C@H](C)C1)[C@@H](C)c1ccc(NC(=O)[C@@H](NC(=O)c2ccnn2CC)C(C2CC2)C2CC2)c(F)c1 (single isomer, unassigned) [Compound 338]"
  result: "< 10 nM"
- molecule: "CCn1nccc1C(=O)N[C@H](C(=O)Nc1ccc([C@H](C)[C@@H](NC(=O)C(C)C(F)(F)F)C(=O)N2CCN(C)CC2)cc1F)C(C1CC1)C1CC1 (single isomer, unassigned)"
  result: "10 to 100 nM"
- molecule: "CCn1nccc1C(=O)N[C@H](C(=O)Nc1ccc([C@H](C)[C@@H](NC(=O)C(C)OCCOC)C(=O)N2CCN(C)[C@H](C)C2)cc1F)C(C1CC1)C1CC1 (single isomer, unassigned)"
  result: "10 to 100 nM"
- molecule: "CCn1nccc1C(=O)N[C@H](C(=O)Nc1ccc([C@H](C)[C@@H](NC(=O)[C@H](C)OC)C(=O)N2C[C@H]3CC[C@@H](C2)N3C)cc1F)C(C1CC1)C1CC1"
  result: "< 10 nM"
- molecule: "CCC(=O)N[C@@H](C(=O)N1CCN(C)CC1)[C@@H](C)c1ccc(NC(=O)[C@@H](NC(=O)c2ccnn2CC(F)(F)F)C(C2CC2)C2CC2)c(F)c1"
  result: "10 to 100 nM"

###

Reported IC50 values for the following compounds.
# testedSystem: IL-17A/F (Homo sapiens, UniProt Q16552+Q96PD4)
# Sequence (Q96PD4 31-163, one chain of several): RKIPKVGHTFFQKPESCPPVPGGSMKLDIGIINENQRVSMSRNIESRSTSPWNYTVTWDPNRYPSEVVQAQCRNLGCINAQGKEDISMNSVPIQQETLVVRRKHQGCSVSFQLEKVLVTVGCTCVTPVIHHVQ
# assayNotes: IL-17A/F HEK-Blue Cell Assay
# Type: cell-based
# cond: HEK-Blue IL-17 reporter cells, IL-17A/F stimulation, 20 hours, SEAP readout; read-out: IL17AF HEK Blue pIC50 (converted)

- compound: "CCn1nccc1C(=O)N[C@H](C(=O)Nc1ccc([C@H](C)[C@@H](NC(=O)[C@@H](C)F)C(=O)N2CCN(C)[C@H](C)C2)cc1F)C(C1CC1)C1CC1"
  testedSystem: "IL-17A/F (Homo sapiens, UniProt Q16552+Q96PD4)"
  IC50: "100 to 10000 nM"
- compound: "CCC(OC)C(=O)N[C@@H](C(=O)N1CCN(C)[C@H](C)C1)[C@@H](C)c1ccc(NC(=O)[C@@H](NC(=O)c2ccnn2CC)C(C2CC2)C2CC2)c(F)c1 (single isomer, unassigned) [Compound 338]"
  testedSystem: "IL-17A/F (Homo sapiens, UniProt Q16552+Q96PD4)"
  IC50: "10 to 100 nM"
- compound: "CCOCCN(C)C(=O)N[C@@H](C(=O)N1CCN(C)[C@H](C)C1)[C@@H](C)c1ccc(NC(=O)[C@@H](NC(=O)c2ccnn2CC)C(C2CC2)C2CC2)c(F)c1"
  testedSystem: "IL-17A/F (Homo sapiens, UniProt Q16552+Q96PD4)"
  IC50: "100 to 10000 nM"
- compound: "CO[C@@H](C)C(=O)N[C@@H](C(=O)N1CCNC(CF)C1)[C@@H](C)c1ccc(NC(=O)[C@@H](NC(=O)C2(F)CC2)C(C2CC2)C2CC2)c(F)c1 (single isomer, unassigned)"
  testedSystem: "IL-17A/F (Homo sapiens, UniProt Q16552+Q96PD4)"
  IC50: "100 to 10000 nM"
- compound: "CCn1nccc1C(=O)N[C@H](C(=O)Nc1ccc([C@H](C)[C@@H](NC(=O)[C@H](C)N(C)c2ncncn2)C(=O)N2CCN(C)[C@H](C)C2)cc1F)C(C1CC1)C1CC1"
  testedSystem: "IL-17A/F (Homo sapiens, UniProt Q16552+Q96PD4)"
  IC50: "< 10 nM"
- compound: "CCn1nccc1C(=O)N[C@H](C(=O)Nc1ccc([C@H](C)[C@@H](NC(=O)[C@H](C)Nc2ncccn2)C(=O)N2CCN(C)[C@H](C)C2)cc1F)C(C1CC1)C1CC1"
  testedSystem: "IL-17A/F (Homo sapiens, UniProt Q16552+Q96PD4)"
  IC50: "< 10 nM"
- compound: "CCn1nccc1C(=O)N[C@H](C(=O)Nc1ccc([C@H](C)[C@@H](NC(=O)C(C)OCCOC)C(=O)N2CCN(C)CC2)cc1F)C(C1CC1)C1CC1 (single isomer, unassigned)"
  testedSystem: "IL-17A/F (Homo sapiens, UniProt Q16552+Q96PD4)"
  IC50: "100 to 10000 nM"
- compound: "CO[C@@H](C)C(=O)N[C@@H](C(=O)N1CCN(C)[C@H](C)C1)[C@@H](C)c1ccc(NC(=O)[C@@H](NC(=O)c2ccnn2C2CC2)C(C2CC2)C2CC2)c(F)c1"
  testedSystem: "IL-17A/F (Homo sapiens, UniProt Q16552+Q96PD4)"
  IC50: "10 to 100 nM"
- compound: "COC(=O)N1CCC[C@H]1C(=O)N[C@@H](C(=O)N1CCN(C)[C@H](C)C1)[C@@H](C)c1ccc(NC(=O)[C@@H](NC(=O)C2(F)CC2)C(C2CC2)C2CC2)c(F)c1"
  testedSystem: "IL-17A/F (Homo sapiens, UniProt Q16552+Q96PD4)"
  IC50: "100 to 10000 nM"
- compound: "CCn1nccc1C(=O)N[C@H](C(=O)Nc1ccc([C@H](C)[C@@H](NC(=O)COC)C(=O)N2C[C@@H](C)N(C)[C@@H](C)C2)cc1F)C(C1CC1)C1CC1"
  testedSystem: "IL-17A/F (Homo sapiens, UniProt Q16552+Q96PD4)"
  IC50: "10 to 100 nM"
- compound: "CCC(=O)N[C@@H](C(=O)N1CCNC(CF)C1)[C@@H](C)c1ccc(NC(=O)[C@@H](NC(=O)c2nonc2CC)C(C2CC2)C2CC2)c(F)c1 (single isomer, unassigned)"
  testedSystem: "IL-17A/F (Homo sapiens, UniProt Q16552+Q96PD4)"
  IC50: "100 to 10000 nM"
- compound: "CCC(=O)N[C@@H](C(=O)N1CCN(C)[C@@H](C)C1)[C@@H](C)c1ccc(NC(=O)[C@@H](NC(=O)c2ccnn2CC)C(C2CC2)C2CC2)c(F)c1"
  testedSystem: "IL-17A/F (Homo sapiens, UniProt Q16552+Q96PD4)"
  IC50: "10 to 100 nM"
- compound: "COC(=O)N1CC[C@H]1C(=O)N[C@@H](C(=O)N1CCN(C)[C@H](C)C1)[C@@H](C)c1ccc(NC(=O)[C@@H](NC(=O)C2(F)CC2)C(C2CC2)C2CC2)c(F)c1"
  testedSystem: "IL-17A/F (Homo sapiens, UniProt Q16552+Q96PD4)"
  IC50: "100 to 10000 nM"
- compound: "CCn1nccc1C(=O)N[C@H](C(=O)Nc1ccc([C@H](C)[C@@H](NC(=O)C(C)CC(F)(F)F)C(=O)N2CCN(C)CC2)cc1F)C(C1CC1)C1CC1 (single isomer, unassigned) [Compound 332]"
  testedSystem: "IL-17A/F (Homo sapiens, UniProt Q16552+Q96PD4)"
  IC50: "10 to 100 nM"
- compound: "CCn1nccc1C(=O)N[C@H](C(=O)Nc1ccc([C@H](C)[C@@H](NC(=O)C(C)Cc2cc(O)no2)C(=O)N2CCN(C)[C@H](C)C2)cc1F)C(C1CC1)C1CC1 (single isomer, unassigned) [Compound 344]"
  testedSystem: "IL-17A/F (Homo sapiens, UniProt Q16552+Q96PD4)"
  IC50: "10 to 100 nM"
- compound: "CCn1nccc1C(=O)N[C@H](C(=O)Nc1ccc(C(C(NC(=O)[C@H](C)OC)C(=O)N2CCN(C)[C@H](C)C2)C(F)(F)F)cc1F)C(C1CC1)C1CC1 (single isomer, unassigned) [Compound 357]"
  testedSystem: "IL-17A/F (Homo sapiens, UniProt Q16552+Q96PD4)"
  IC50: "100 to 10000 nM"
- compound: "CCOC(=O)N[C@@H](CF)C(=O)N[C@@H](C(=O)N1CCN(C)CC1)[C@@H](C)c1ccc(NC(=O)[C@@H](NC(=O)c2nonc2C)C(C2CC2)C2CC2)c(F)c1"
  testedSystem: "IL-17A/F (Homo sapiens, UniProt Q16552+Q96PD4)"
  IC50: "10 to 100 nM"
- compound: "CO[C@@H](C)C(=O)N[C@@H](C(=O)N1CCN(C)C[C@@H]1C)[C@@H](C)c1ccc(NC(=O)[C@@H](NC(=O)C2(F)CC2)C(C2CC2)C2CC2)c(F)c1"
  testedSystem: "IL-17A/F (Homo sapiens, UniProt Q16552+Q96PD4)"
  IC50: "100 to 10000 nM"
- compound: "CO[C@@H](C)C(=O)N[C@@H](C(=O)N1C[C@H]2CC[C@@H](C1)N2C)[C@@H](C)c1ccc(NC(=O)[C@@H](NC(=O)C2(F)CC2)C(C2CC2)C2CC2)c(F)c1"
  testedSystem: "IL-17A/F (Homo sapiens, UniProt Q16552+Q96PD4)"
  IC50: "100 to 10000 nM"
